Where do these numbers come from? They come from ChEMBL document CHEMBL1151851.

# Test system: Radical scavenging activity
# ASSAY_REMARKS: Antioxidant activity assessed as DPPH radical scavenging activity after 30 mins by spectrophotometry
# Type: functional
ENDPOINT: IC50 (µM)
Note: unit µM is implicit; provide only the numeric part.

Prompt: Report IC50 for COC(c1ccc(O)cc1)[C@H]1CO[C@@H](c2ccc(O)cc2)[C@@H]1CO (relative stereo) [CHUSHIZISIN G] tested on Radical scavenging activity.
Completion: 281

Prompt: What do you get for COc1cc(/C=C/CO)ccc1O[C@H](CO)[C@H](O)c1ccc(O)cc1 (relative stereo) [CHUSHIZISINS A] ?
Completion: 237

Prompt: What do you get for COc1cc([C@H](O)[C@@H](CO)Oc2ccc(/C=C/CO)cc2OC)ccc1O (relative stereo) ?
Completion: 60.9

Prompt: What do you get for COc1cc(CCCO)ccc1O[C@H](CO)[C@@H](O)c1ccc(O)cc1 (relative stereo) [CHUSHIZISINS D] ?
Completion: 274

Prompt: What do you get for COc1cc(/C=C/CO)ccc1O[C@H](CO)[C@@H](O)c1ccc(O)cc1 (relative stereo) [CHUSHIZISINS B] ?
Completion: 156
